system: dA60.dT60 duplex; experiment: UV thermal denaturation of AT rich DNA duplex; assay type: binding; conditions: ligand 10 μM, DNA 1 μM/duplex, 10 mM sodium cacodylate, 0.1 mM EDTA, 100 mM NaCl, pH 7.0
Quantity: Tm (°C)
Give a bare numeral; the unit °C is implied.

// fetch dA60.dT60 duplex Tm for CN1CCN(c2ccc3[nH]c(-c4ccc5[nH]c(-c6ccc(O)cc6)nc5c4)nc3c2)CC1 [Hoechst 33258, reference compound]
87.1

Then what about the compound C#CCCCCOc1ccc(-c2nc3ccc(-c4nc5ccc(N6CCN(C)CC6)cc5[nH]4)cc3[nH]2)cc1 ?
83.4

Then what about the compound C#CCOc1ccc(-c2nc3ccc(-c4nc5ccc(N6CCN(C)CC6)cc5[nH]4)cc3[nH]2)cc1 ?
85.4

Then what about the compound CCOc1ccc(-c2nc3ccc(-c4nc5ccc(N6CCN(C)CC6)cc5[nH]4)cc3[nH]2)cc1 [Hoechst 33342, reference compound] ?
86.6

Then what about the compound C#CCOCCCCOc1ccc(-c2nc3ccc(-c4nc5ccc(N6CCN(C)CC6)cc5[nH]4)cc3[nH]2)cc1 ?
85.9

Then what about the compound C#CCCCCCCCCCOc1ccc(-c2nc3ccc(-c4nc5ccc(N6CCN(C)CC6)cc5[nH]4)cc3[nH]2)cc1 ?
70.5
